experiment.summary: qHTS of pediatric cancer cell lines to identify multiple opportunities for drug repurposing: Primary screen for Rh41 cells (AID 1347108); also: nearly all actives have a fitted effect of over 70% in size
test.settings: Rh41 rhabdomyosarcoma viability, CellTiter-Glo luminescence, 48 h; series mostly up to 46 µM
Results filed as inconclusive are left out. Activity calls are given as the source filed them. Calls follow the shape of the dose curve; as a rule, active = well fitted cell-killing curve with a large enough effect; inconclusive = small, poorly fitted or top-dose-only effect; inactive = no such curve, though single readings can be large or run the other way.
Outcomes: true = active, false = inactive

INSERT INTO measurements (molecule, answer_label) VALUES
  ('CCCCCCCCCCCCCCCC[N+](C)(C)CC', 'true'),
  ('CN1C(CCl)Nc2cc(Cl)c(S(N)(=O)=O)cc2S1(=O)=O (stereo not given)', 'false'),
  ('CCN(CCCCOC(=O)c1ccc(OC)c(OC)c1)C(C)Cc1ccc(OC)cc1 (stereo not given)', 'false'),
  ('CCOC(=O)COc1ccc2c(C)c(CCN(CC)CC)c(=O)oc2c1Cl', 'false'),
  ('CC/C(=C(/CC)c1ccc(O)cc1)c1ccc(O)cc1', 'false'),
  ('NC[C@H]1O[C@H](O[C@H]2[C@H](O)[C@@H](O[C@H]3O[C@H](CO)[C@@H](O)[C@H](N)[C@H]3O)[C@H](N)C[C@@H]2N)[C@H](N)[C@@H](O)[C@@H]1O', 'false'),
  ('C[C@]12C=CC(=O)C=C1[C@@H](F)C[C@@H]1[C@@H]2[C@@H](O)C[C@@]2(C)[C@H]1CC[C@]2(O)C(=O)CO', 'false'),
  ('CN(C/C=C/c1ccccc1)Cc1cccc2ccccc12', 'false'),
  ('CCCCCCCCCCCCCCCCCC(=O)OCC(O)CO (stereo not given)', 'false'),
  ('CC(C)COC(=O)c1ccc(N)cc1', 'false');
